target: cGMP-specific 3',5'-cyclic phosphodiesterase (Homo sapiens, UniProt O76074); test: Inhibition of full length recombinant human N-terminal GST-tagged PDE5A1 expressed in baculovirus infected sf9 cells at 100 nM using FAM-cyclic-3',5-GMP as substrate after 1 hr by fluorescence polarization assay relative to control
PARAMETER: inhibition (%)

| COMPOUND | UNITS_TEXT | inhibition |
| --- | --- | --- |
| CCc1ccc(C2c3[nH]c4ccccc4c3CCN2C(=O)/C=C/c2ccc(C(=O)OC)cc2)s1 (stereo unspecified) | % | 43.9 |
| CCc1ccc([C@H]2c3[nH]c4ccccc4c3C[C@H]3C(=O)N(C)CC(=O)N23)o1 | % | 69 |
| CN1CC(=O)N2[C@@H](c3ccc(Br)s3)c3[nH]c4ccccc4c3C[C@@H]2C1=O | % | 39.8 |
| Cc1ccc(C(=O)c2[nH]c3ccccc3c2CCNc2ccc(-c3ccccn3)cn2)s1 | % | 20.4 |
| CN1CC(=O)N2[C@@H](c3sccc3Br)c3[nH]c4ccccc4c3C[C@@H]2C1=O | % | 41.6 |
| CCCc1ccc(C(=O)c2[nH]c3ccccc3c2CCNc2ccc(-c3ccccn3)cn2)s1 | % | 18.3 |

a = CCc1ccc(C2c3[nH]c4ccccc4c3CCN2c2ncc(-c3ccc(OC)c(OC)c3)cn2)o1 (stereo unspecified)
b = CCc1ccc(C(=O)c2[nH]c3ccccc3c2C[C@H]2NC(=O)CN(C)C2=O)s1
c = Cc1cc(C(=O)c2[nH]c3ccccc3c2CCNc2ccc(-c3ccccn3)cn2)sc1C
d = CN1CC(=O)N2[C@H](c3ccc(Br)s3)c3[nH]c4ccccc4c3C[C@@H]2C1=O
Query: Please produce an ascending ranking of these compounds based on inhibition. Labels, requested order.
Result: c, b, a, d
(c: 1.7%, b: 21.1%, a: 47.6%, d: 99.2%)

I = CCc1ccc(C(=O)c2[nH]c3ccccc3c2C[C@@H]2NC(=O)N(CC)C2=O)s1
II = Cc1ccc([C@H]2c3[nH]c4ccccc4c3C[C@@H]3C(=O)N(C)CC(=O)N23)o1
III = CCc1ccc(C2c3[nH]c4ccccc4c3C(=O)CN2c2ncc(-c3ccc(OC)c(OC)c3)cn2)s1 (stereo unspecified)
Query: Returns the items ordered by inhibition, from maximum to minimum. Labels, requested order.
Result: III, II, I

I = Cc1ccc(C2c3[nH]c4ccccc4c3CCN2c2ccc(-c3ccccn3)cn2)o1 (stereo unspecified)
II = CCc1ccc([C@H]2c3[nH]c4ccccc4c3C[C@@H]3C(=O)N(CC)C(=O)N23)o1
Query: Endpoint returns the identifier whose inhibition is numerically larger, either I or II . // respond with label for picked entry
Result: II
(II: 83.6%, I: 23.2%)

====

molecular target: Dual 3',5'-cyclic-AMP and -GMP phosphodiesterase 11A (Homo sapiens, UniProt Q9HCR9); assay: Inhibition of full length recombinant human N-terminal GST-tagged PDE11A4 expressed in baculovirus infected sf9 cells using FAM-cyclic-3',5-AMP as substrate after 1 hr by fluorescence polarization assay
Sequence (Q9HCR9 whole entry): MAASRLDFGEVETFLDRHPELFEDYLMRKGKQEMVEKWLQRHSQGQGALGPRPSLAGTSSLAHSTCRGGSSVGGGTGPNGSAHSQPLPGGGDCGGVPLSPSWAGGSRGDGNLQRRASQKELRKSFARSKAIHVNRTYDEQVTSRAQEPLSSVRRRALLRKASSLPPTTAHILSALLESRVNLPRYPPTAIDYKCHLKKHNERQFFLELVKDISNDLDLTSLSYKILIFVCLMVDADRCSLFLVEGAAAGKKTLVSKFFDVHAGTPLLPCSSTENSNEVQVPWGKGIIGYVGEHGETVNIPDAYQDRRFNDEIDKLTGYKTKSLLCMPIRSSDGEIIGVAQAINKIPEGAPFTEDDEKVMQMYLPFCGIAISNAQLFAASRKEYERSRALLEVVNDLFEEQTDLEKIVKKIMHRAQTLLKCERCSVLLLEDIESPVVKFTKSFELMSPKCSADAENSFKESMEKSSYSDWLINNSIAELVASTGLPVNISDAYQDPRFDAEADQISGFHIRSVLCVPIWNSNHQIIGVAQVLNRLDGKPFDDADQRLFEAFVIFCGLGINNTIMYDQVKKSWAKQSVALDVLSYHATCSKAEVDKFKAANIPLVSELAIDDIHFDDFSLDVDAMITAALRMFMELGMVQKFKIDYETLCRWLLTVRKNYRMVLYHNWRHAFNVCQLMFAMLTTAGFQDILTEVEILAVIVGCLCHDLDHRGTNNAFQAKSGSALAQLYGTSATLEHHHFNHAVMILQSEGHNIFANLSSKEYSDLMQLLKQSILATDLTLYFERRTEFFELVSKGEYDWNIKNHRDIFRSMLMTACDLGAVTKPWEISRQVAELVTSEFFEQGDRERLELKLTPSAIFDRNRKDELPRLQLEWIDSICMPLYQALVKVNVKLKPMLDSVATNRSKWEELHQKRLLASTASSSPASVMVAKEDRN
PARAMETER: IC50 (nM)

| COMPOUND | RESULT_NUMBER |
| --- | --- |
| Cc1ccc([C@@H]2c3[nH]c4ccccc4c3C[C@@H]3C(=O)N(C)CC(=O)N23)s1 | 173 |
| CCc1ccc([C@@H]2c3[nH]c4ccccc4c3C[C@@H]3C(=O)N(CC)C(=O)N23)o1 | 99 |
| CCc1ccc([C@@H]2c3[nH]c4ccccc4c3C[C@@H]3C(=O)N(CC)C(=O)N23)s1 | 169 |
| CCN1C(=O)[C@@H]2Cc3c([nH]c4ccccc34)[C@@H](c3sccc3C)N2C1=O | 155 |

I = CCc1ccc(C2c3[nH]c4ccccc4c3C(=O)CN2c2ncc(-c3ccc(OC)c(OC)c3)cn2)s1 (centres undefined)
II = CCN1C(=O)[C@@H]2Cc3c([nH]c4ccccc34)[C@@H](c3ccc(C)o3)N2C1=O
III = CCc1ccc([C@H]2c3[nH]c4ccccc4c3C[C@@H]3C(=O)N(CC)C(=O)N23)o1
IV = CN1CC(=O)N2[C@H](c3ccc(Br)s3)c3[nH]c4ccccc4c3C[C@@H]2C1=O
Query: Returns the items ordered by IC50, from maximum to minimum. Labels, requested order.
Result: III, IV, I, II
